Overview of reported GI50 across a group of molecules:
tested on: TK-10 renal cancer cell line; assay: NCI in vitro antiproliferative screen (SRB), TK-10; type: cell-based, human; settings: Homo sapiens; TK-10, after 48 h
Return type: number; implicit unit nM.

>>> number("CC(=O)O[C@H]1CC2C(C3CC[C@H](C(C)CCC(=O)O)[C@]31C)[C@H](OC(C)=O)C[C@@H]1CC3(CC[C@]21C)OOC1(CCC(c2ccccc2)CC1)OO3 (single isomer, unassigned) [Compound 1C44]")
1990

Q: GI50 lookup needed for CC(=O)O[C@H]1CC2C(C3CC[C@H](C(C)CCC(N)=O)[C@]31C)[C@H](OC(C)=O)C[C@@H]1CC3(CC[C@]21C)OOC1(CCC(c2ccccc2)CC1)OO3 (single isomer, unassigned) [Compound 1C45] , thanks.
Result: 2700

Q: Same lookup for C[C@@H]1CC[C@H]2[C@@H](C)C(=O)O[C@@H]3O[C@@]4(C)CC[C@@H]1[C@]32OO4 [Artemisinin, reference compound] , please.
Result: 100000

Q: Same lookup for CC(=O)O[C@H]1C(=O)[C@@]2(C)[C@H]([C@H](OC(=O)c3ccccc3)[C@]3(O)C[C@H](OC(=O)[C@H](O)[C@@H](NC(=O)c4ccccc4)c4ccccc4)C(C)=C1C3(C)C)[C@]1(OC(C)=O)CO[C@@H]1C[C@@H]2O [Paclitaxel, reference compound] , please.
Result: 250

###

System: M. tuberculosis H37Rv
Experiment: Minimum inhibitory concentration (MIC) in the MABA
Format: cell-based, Mycobacterium tuberculosis
Settings: Mycobacterium tuberculosis, H37RV, Table 5; Alamar assay, M. tuberculosis H37Rv; read-out: MIC
Description: The activity of the compounds of the present invention against Mycobacterium tuberculosis was determined using the following assays conducted by the National Institute of Allergy and Infectious Diseases (NIAID) supports a TB drug acquisition and screening program, the TAACF. 2. Minimum Inhibitory Concentration (MIC) The MIC is defined as the lowest concentration effecting a reduction in fluorescence of 90% relative to controls. Minimum compound requirements: 1.0 mg.
Measured parameter: MIC

Record excerpt, results attached:
>>> result("CCC1CCC2(CC1)OOC1(CC[C@]3(C)C4C[C@H](OC(C)=O)[C@@]5(C)C(CC[C@@H]5C(C)CCC(=O)OC)C4[C@H](OC(C)=O)C[C@@H]3C1)OO2 (single isomer, unassigned) [8i/1B13a]")
"> 6.25 µg/mL"
>>> result("COC(=O)CNC(=O)CCC(C)[C@H]1CCC2C3C(C[C@H](OC(C)=O)[C@@]21C)[C@@]1(C)CCC2(C[C@H]1C[C@H]3OC(C)=O)OOC1(CCCCC1)OO2 (stereo partly drawn) [12/1C21]")
"6.25 µg/mL"

Attention now turns to another entry.
Q: MIC lookup needed for COC(=O)CCC(C)[C@H]1CCC2C3C(C[C@H](OC(C)=O)[C@@]21C)[C@@]1(C)CCC2(C[C@H]1C[C@H]3OC(C)=O)OOC1(CCCCC1)OO2 (stereo partly drawn) [8b/1B05] , thanks.
Result: > 6.25 µg/mL

###

Overview of reported inhibition at 6.25 µg/mL across a group of compounds:
test system: Mycobacterium tuberculosis H37Rv (ATCC 27294); assay: Primary screen, Microplate Alamar Blue Assay (MABA), percent inhibition; format: cell-based; settings: Mycobacterium tuberculosis, Table 5; Alamar assay, primary screening at 6.25 μg/ml; read-out: % Inhib

Q: inhibition at 6.25 µg/mL lookup needed for COC(=O)CCC(C)[C@H]1CCC2C3C(C[C@H](OC(C)=O)[C@@]21C)[C@@]1(C)CCC2(C[C@H]1C[C@H]3OC(C)=O)OOC1(CC(C)CCC1C(C)C)OO2 (stereo partly shown) , thanks.
Result: 0%

Q: Same lookup for CCNC(=O)CCC(C)[C@H]1CCC2C3C(C[C@H](OC(C)=O)[C@@]21C)[C@@]1(C)CCC2(C[C@H]1C[C@H]3OC(C)=O)OOC1(CCCCC1C)OO2 (stereo partly shown) , please.
Result: 98%

Q: Same lookup for COC(=O)CCC(C)[C@H]1CCC2C3C(C[C@H](OC(C)=O)[C@@]21C)[C@@]1(C)CCC2(C[C@H]1C[C@H]3OC(C)=O)OOC1(CCCCC1)OO2 (stereo partly shown) , please.
Result: 0%

Q: Same lookup for COC(=O)CCC(C)[C@H]1CCC2C3C(C[C@H](OC(C)=O)[C@@]21C)[C@@]1(C)CCC2(C[C@H]1C[C@H]3OC(C)=O)OOC1(CCC(c3ccccc3)CC1)OO2 (single isomer, unassigned) [Compound 1B14a] , please.
Result: 37%

Q: Same lookup for COC(=O)CCC(C)[C@H]1CCC2C3C(C[C@H](OC(C)=O)[C@@]21C)[C@@]1(C)CCC2(C[C@H]1C[C@H]3OC(C)=O)OOC1(OO2)C(C)CCCC1C (stereo partly shown) , please.
Result: 0%

Q: Same lookup for COC(=O)CNC(=O)CCC(C)[C@H]1CCC2C3C(C[C@H](OC(C)=O)[C@@]21C)[C@@]1(C)CCC2(C[C@H]1C[C@H]3OC(C)=O)OOC1(CCCCC1)OO2 (stereo partly shown) , please.
Result: 99%

Q: Same lookup for CCCNC(=O)CCC(C)[C@H]1CCC2C3C(C[C@H](OC(C)=O)[C@@]21C)[C@@]1(C)CCC2(C[C@H]1C[C@H]3OC(C)=O)OOC1(CCCCC1)OO2 (stereo partly shown) , please.
Result: 88%

Taken from patent US6906098B2.
